- Test system: Ruminococcus gnavus DSM 108212
- assay_details: growth (OD595) fold change vs plate DMSO controls (fold change (ratio)); higher = more growth
- assay_conditions: 20 µM; incubation time: 27 h, anaerobic, 37 °C
Counter-ions that a name gives are not always drawn.
measurement_kind: growth
Just the number.

Consider the reported growth for these molecules:
CCC(C)(C)C(=O)OC1=C(c2ccc(Cl)cc2Cl)C(=O)OC12CCCCC2	1.05
CC(C)OC(=O)Nc1cccc(Cl)c1	0.957
O=S(=O)(c1ccc(O)cc1)c1ccc(O)cc1	1.04
CN(C)[C@@H]1C(=O)C(C(N)=O)=C(O)[C@@]2(O)C(=O)C3=C(O)c4c(O)ccc(Cl)c4[C@@](C)(O)[C@H]3C[C@@H]12 [Chlortetracycline hydrochloride]	0.431
CCC1(c2cccc(O)c2)CCCCN(C)C1 (stereo not given) [Meptazinol hydrochloride]	1.01

Challenge: What value of measured growth is listed for COP(=S)(OC)Oc1ccc(SC)c(C)c1 ?
Response given: 0.973

Challenge: What value of measured growth is listed for CCNc1nc(Cl)nc(NC(C)C)n1 ?
Response given: 1.06

* * *

- Tested on: Klebsiella aerogenes DSM 30053
- assay_details: fold change of Histamine concentration vs plate DMSO controls (fold change (ratio)); higher = more amine produced, active = hit call of the paper (significant change in both replicates, either direction)
- assay_conditions: 20 µM; incubation time: 27 h, anaerobic, 37 °C
Where a name gives a salt, the structure may show the parent alone.
Classify by measured fold change of Histamine concentration: True if it is equal to or exceeds 1, False if it is smaller.

Field: example entries. Status: answers known.
C[CH2][Hg][S]c1ccccc1C(=O)[O-].[Na+] [Thimerosal]	False
CCCCC(C#N)(Cn1cncn1)c1ccc(Cl)cc1 (stereo not drawn)	False
CC(C)(C)NCC(O)c1ccccc1Cl (stereo not drawn) [Tulobuterol hydrochloride]	True
COc1cccc(C2(O)CCCCC2CN(C)C)c1 (stereo not drawn) [Tramadol hydrochloride]	True
CCNC(=O)NC(=O)/C(C#N)=N/OC	False

Challenge: Is reported fold change of Histamine concentration greater than or equal to 1 here: COc1cc2c(c(OC)c1OC)-c1ccc(OC)c(=O)cc1[C@@H](NC(C)=O)CC2 [Colchicine]
Response given: True

* * *

- Test system: Ruminococcus gnavus DSM 108212
- assay_details: growth (OD595) fold change vs plate DMSO controls (fold change (ratio)); higher = more growth
- assay_conditions: 20 µM; incubation time: 27 h, anaerobic, 37 °C
Documented growth across a set of compounds
Just the number.

Consider the reported growth for these compounds:
C[C@]12CCC(=O)C=C1CC[C@@H]1[C@@H]2C(=O)C[C@]2(C)C(=O)CC[C@@H]12 [Adrenosterone]	1
CC(CCc1ccccc1)NC(C)C(O)c1ccc(O)cc1 (configuration not stated) [Nylidrin]	1
Cc1cc(C2CC2)nc(Nc2ccccc2)n1	0.987
CCCN(CCC)C(=O)SCc1ccccc1	0.973
c1ccc2c(c1)-c1cccc3cccc-2c13 [Fluoranthene]	1.01

Challenge: Form: Entry = C[C@]12CC[C@H](O)C[C@H]1CC[C@@H]1[C@@H]2CC[C@]2(C)[C@@H](C3=CC(=O)OC3)CC[C@]12O [Digitoxigenin] | System = Ruminococcus gnavus DSM 108212 | growth = ____
Response given: 1

Challenge: Form: Entry = C[N+](C)(C)CCCCCCCCCC[N+](C)(C)C [Decamethonium bromide] | System = Ruminococcus gnavus DSM 108212 | growth = ____
Response given: 1.01

Challenge: Form: Entry = C[N+]12CCC(CC1)C(OC(=O)C(O)(c1ccccc1)c1ccccc1)C2 (configuration not stated) [Clidinium bromide] | System = Ruminococcus gnavus DSM 108212 | growth = ____
Response given: 1

Challenge: Form: Entry = COP(N)(=O)SC (configuration not stated) | System = Ruminococcus gnavus DSM 108212 | growth = ____
Response given: 1.01
